Quick list: %Inh per entry.
- Tested on: MET;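 also: KINOMEscan kinase panel screen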
- test_context: concentration: 1 μM, replicates: in singlicate; n = 1
measurement_type: %Inh

INSERT INTO results (molecule, data_value) VALUES
  ('Cc1cccc(NC(=O)Nc2ccc(Oc3ncnc4ccn(C)c34)cc2)c1', '19%'),
  ('COc1cc(Nc2nccc(N3CCC(NC(=O)Nc4cccc(C(C)=O)c4)C3)n2)cc(OC)c1OC (stereo not shown) [GSK1379753]', '12%'),
  ('CC(=O)Nc1nc2cnc(Nc3cc(NC(=O)c4cccc(C5(C#N)CC5)c4Cl)ccc3C)nc2s1', '8%'),
  ('Cn1cc(-c2[nH]c3cc(NC(=O)[C@H](N)C4CCCCC4)cc4c3c2C=NNC4=O)cn1', '5%');
